assay: Cycloheximide Counterscreen for Small Molecule Inhibitors of Shiga Toxin; conditions: cell reporter, cycloheximide protein synthesis inhibition counterscreen; further: read at 38.3 µM for the half of the compounds with a filed dose
In all, about 300,000 compounds went through this assay and about 37,000 (12%) were called active. No stated cut-off is given here; in the data, active means max response mostly above about 13% (no sharp cut-off); inactive means mostly below about 14%. What follows is part of a selection rich in actives, with near analogues and random picks from the rest.
Labels: 1 for active, 0 for inactive

> print(dat)
                                    compound  classification
 1  Cc1nc(-c2nnc(SCC(=O)Nc3cc(C(F)(F)F)cc(C(F)(F)F)c3)n2C)cs1               0
 2              COCCOC(=O)c1sc(=S)n(CCOC)c1N               0
 3                 Cc1oc2cc3oc(=O)ccc3cc2c1C               1
 4  COc1ccc(C(C)NC(=S)NC2CCCCC2)cc1OC (centres undefined)               0
 5  Cc1cccc(NC(=O)Cn2c(=O)n(Cc3ccccc3)c(=O)c3c(C)c(C)sc32)c1               0
 6  CC(OC(=O)c1ccc2noc(-c3ccccc3)c2c1)C(N)=O (centres undefined)               0
 7  COc1ccc(S(=O)(=O)N2CCCCCC2)cc1C(=O)OCC(=O)Nc1cc(C)on1               0
 8  COc1cc(NS(=O)(=O)c2ccccc2)ccc1-n1nc(C)cc1C               0
 9  COc1cccc(C(=O)Nc2nnc(S(=O)(=O)N(C)c3ccccc3)s2)c1               0
10           COc1ccc(Nc2cc(=O)oc3ccccc23)cc1               0
11  O=C1N(Cc2ccc3c(c2)OCO3)c2ccccc2C1(O)c1c[nH]c2ccccc12 (centres undefined)               0
12           Cc1noc(C)c1COc1ccc2ccc(=O)oc2c1               0
13  COC(=O)c1ccc(NC(=O)CSc2nncn2-c2cccnc2)cc1               0
14  CN(c1ccccc1)S(=O)(=O)c1cc(C(=O)OCC(=O)N2CCN(C(=O)c3ccco3)CC2)ccc1Cl               0
